The values you see were collected from patent CN116554322A.

This section presents binders with their documented 比值(kd) values.
Biological target: T1, 人IL-18Rβ蛋白 (IL-18Rβ antigen) (human)
T1 chain: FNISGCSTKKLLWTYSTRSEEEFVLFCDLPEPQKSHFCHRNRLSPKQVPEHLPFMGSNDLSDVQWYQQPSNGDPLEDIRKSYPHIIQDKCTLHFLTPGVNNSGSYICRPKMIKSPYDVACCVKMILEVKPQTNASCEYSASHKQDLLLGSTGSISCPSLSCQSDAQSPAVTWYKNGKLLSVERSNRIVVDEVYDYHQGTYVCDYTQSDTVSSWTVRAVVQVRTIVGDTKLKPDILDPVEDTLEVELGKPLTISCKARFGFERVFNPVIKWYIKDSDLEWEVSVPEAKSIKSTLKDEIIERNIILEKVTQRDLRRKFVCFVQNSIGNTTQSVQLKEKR
Assay: SPR (Biacore 8K), Fab captured; ratio of kd of C056-WT to kd of the clone

{"binder": "A042 Fab clone (Fab, V domains shown) VH: EVQLVESGGGLVQPGGSLRLSCAASGLNLYYSSMHWVRQAPGKGLEWVASIYSSNGRTYYADSVKGRFTISADTSKNTAYLQMNSLRAEDTAVYYCARASFSHGYGWYGLDYWGQGTLVTVSS VL: DIQMTQSPSSLSASVGDRVTITCRASQSVSSAVEWYQQKPGKAPKLLIYSASSLYSGVPSRFSGSRSGTDFTLTISSLQPEDFATYYCQQYGYHDAGLITFGQGTKVEIK", "比值(kd)": 11.2}
{"binder": "A041 Fab clone (Fab, V domains shown) VH: EVQLVESGGGLVQPGGSLRLSCAASGVNLYYSSMHWVRQAPGKGLEWVASIYSSNGRTYYADSVKGRFTISADTSKNTAYLQMNSLRAEDTAVYYCARASFSHGYGWYGLDYWGQGTLVTVSS VL: DIQMTQSPSSLSASVGDRVTITCRASQSVSFAVDWYQQKPGKAPKLLIYSASSLYSGVPSRFSGSRSGTDFTLTISSLQPEDFATYYCQQYGYHDAGLITFGQGTKVEIK", "比值(kd)": 18.7}
{"binder": "A035 Fab clone (Fab, V domains shown, Mutations against C056-WT: VL-S31F/VL-A34E/VH-F27I/VH-S99A) VH: EVQLVESGGGLVQPGGSLRLSCAASGINLYYSSMHWVRQAPGKGLEWVASIYSSNGRTYYADSVKGRFTISADTSKNTAYLQMNSLRAEDTAVYYCARASFSHGYGWYGLDYWGQGTLVTVSS VL: DIQMTQSPSSLSASVGDRVTITCRASQSVSFAVEWYQQKPGKAPKLLIYSASSLYSGVPSRFSGSRSGTDFTLTISSLQPEDFATYYCQQYGYHDAGLITFGQGTKVEIK", "比值(kd)": 37.3}
